- protocol_notes: NCI Yeast Anticancer Drug Screen. Data for the rad50 strain (AID 155);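 also: 0% = growth of vehicle-only cultures of the same strain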
- condition_context: S. cerevisiae rad50 strain growth inhibition, active compounds read high; at 50.0 µM unless noted
- Procedure: Growth inhibition of yeast strains with defined genetic alterations is measured as a screen for potential anti-cancer activity. Selected strains with alterations in DNA damage repair or cell cycle control were exposed to compounds and growth inhibition was measured relative to vehicle treated controls. The strain used in this assay is rad50
About 79,000 compounds went through this panel and 15% of them were active in at least one assay; those are over-represented in the sample as a whole.
Hi there, I'd appreciate the recorded growth inhibition for every entry that follows.
Answers are plain numbers, in %.

In the examples that follow, each entry is paired with its recorded growth inhibition.
[[record]]
compound = "CCCCCC=C(C(=O)OCC)C(=O)OCC"
readout_type = "growth inhibition"
reading = 22.9

[[record]]
compound = "COc1ccc(N=Nc2nc(N)c(C(N)=O)[nH]2)cc1"
readout_type = "growth inhibition"
reading = -8.65

[[record]]
compound = "Nc1ccc2c(c1)C(=O)c1cc(Cl)cc(Cl)c1-2"
readout_type = "growth inhibition"
reading = 0

[[record]]
compound = "CC(=O)[CH-]C(=O)c1ccccc1.CC(=O)[CH-]C(=O)c1ccccc1.CC1(C)OCC(C2OC3OC(C)(C)OC3C2[O-])O1.CC[O-].[Ti+4] (centres undefined)"
readout_type = "growth inhibition"
reading = 41.4

[[record]]
compound = "C=CCCCC12CCCc3cccc(c31)NC2=O (centres undefined)"
readout_type = "growth inhibition"
reading = 48.7


List growth inhibition for every entry below, keeping the order given.
1. Cc1cccc(C(=N)c2ccccc2Cc2cccc3ccccc23)c1C
2. Cn1c(O)c(N=NC(=O)Cc2c[nH]c3ccccc23)c2ccccc21
3. O=[N+]([O-])c1ccc(N=Cc2ccc(N(CCF)CCF)cc2)cc1
4. O=C(NCCS)C(=O)NCCS
5. OCCNc1cccc2ccccc12
6. COc1ccc(-c2cc(=O)c3c(O)c(OC)c(O)cc3o2)cc1O
7. NNC(=O)Oc1cccc2ccccc12
8. CC(=O)Nc1cc([N+](=O)[O-])cc([N+](=O)[O-])c1O

[out]
1: 51; 2: -6.95; 3: 6.9; 4: -1.55; 5: 31.6; 6: 24.8; 7: 22.1; 8: -7.5

Required: growth inhibition, one value per compound below.
1. Nc1nc(CCCCc2ccc(NC(=O)CBr)cc2)c(CCCCc2ccccc2)c(=O)[nH]1
2. O=C1NC2OCC(O)C(O)C2O1 (centres undefined)

[out]
27.6
4.6

Provide the reported growth inhibition of each entry below, same order.
1. CC(=O)OCC1OC(O)C(NC(=O)C(F)(F)F)C(OC(C)=O)C1OC(C)=O (centres undefined)
2. O=C1C2C(c3ccccc3)NC(c3ccccc3)C1C(c1ccccc1)NC2c1ccccc1 (centres undefined)

[out]
1. 99.6
2. -13.4
